System: hepatocellular carcinoma bel-7404 (BEL-7404)
PROCEDURE_SUMMARY: MTT antiproliferative assay, BEL-7404
Type: cell-based, human
TEST_CONTEXT: Homo sapiens, read-out: Effect against cell viability (IC50), BEL-7404
Method: All newly synthesized acridinyl derivatives (4–6) were screened for their anticancer activities in comparison to the reference compounds, 5-FU and cis-platinum. Compounds 4–6 were tested for their in vitro antitumor activities against HFF, MGC-803, BEL-7404, NCI-H460, and T24 tumor cell lines, and human normal liver cells (LO2), and the results are shown in Table 1. Most of the compounds had strong selective potency against MGC-803 and T24 cancer cells. […]
pIC50: −log10 of the molar value.
OBSERVABLE: pIC50

Study these solved cases before continuing.
| COMPOUND | OBSERVABLE | MEASURED_VALUE |
| --- | --- | --- |
| Cc1ccc2nc3ccccc3c(-n3c(-c4ccncc4)n[nH]c3=S)c2c1 | pIC50 | 4.35 |
| O=c1[nH]cc(F)c(=O)[nH]1 [5-FU, 5-fluorouracil, reference compound] | pIC50 | 4.46 |
| COC1=CC2C(=Nc3nnc(-c4ccccc4)s3)c3ccccc3NC2C=C1 (stereo not drawn) | pIC50 | 4.49 |
| CC1=CC2C(=Nc3nnc(-c4ccc([N+](=O)[O-])cc4)s3)c3ccccc3NC2C=C1 (stereo not drawn) | pIC50 | 4.36 |
| COC1=CC2C(=Nc3nnc(-c4ccc(OC)cc4)s3)c3ccccc3NC2C=C1 (stereo not drawn) | pIC50 | 4.60 |

I. CC1=CC2C(=Nc3nnc(-c4ccc(Cl)cc4)s3)c3ccccc3NC2C=C1 (stereo not drawn)
II. COc1ccc2nc3ccccc3c(-n3c(-c4ccncc4)n[nH]c3=S)c2c1
Looking at recorded values for pIC50, does I or II come in lower? Your answer should be the label of the entry you select. I
(I: 4.31, II: 4.66)

----------
System: zebrafish embryos
TEST_CONTEXT: zebrafish embryos 72 hpf, 2 mg/mL
Marks after values point to notes of the source that are not given here.
Parameter: MOR (mortality rate). Scope: all listed entries.

| COMPOUND | OBSERVABLE | MEASURED_VALUE |
| --- | --- | --- |
| COc1ccc(C(=O)NNC(=S)Nc2c3ccccc3nc3ccc(OC)cc23)cc1 | MOR (mortality rate) | 35% ^a |
| Cc1ccc2[nH]c3ccccc3c(=NC(=S)NNC(=O)c3ccncc3)c2c1 | MOR (mortality rate) | 85% ^b |
| COc1ccc(-n2c(-c3c4ccccc4nc4ccc(C)cc34)n[nH]c2=S)cc1 | MOR (mortality rate) | 0% |
| CC1=CC2C(=Nc3nnc(-c4ccc([N+](=O)[O-])cc4)s3)c3ccccc3NC2C=C1 (centres unmarked) | MOR (mortality rate) | 0% |
| COc1ccc(-c2nnc(N=C3c4ccccc4NC4C=CC(C)=CC34)s2)cc1 (centres unmarked) | MOR (mortality rate) | 15% ^b |

For reference, reported MOR (mortality rate) for COc1ccc(C(=O)NNC(=S)Nc2c3ccccc3nc3ccc(C)cc23)cc1 stands at 65% ^a

COc1ccc2nc3ccccc3c(-n3c(-c4ccc([N+](=O)[O-])cc4)n[nH]c3=S)c2c1 yielded MOR (mortality rate) of 0%

Data point: COc1ccc2[nH]c3ccccc3c(=NC(=S)NNC(=O)c3ccncc3)c2c1 ; MOR (mortality rate) = 45% ^c

Value of MOR (mortality rate) reported for the compound COC1=CC2C(=Nc3nnc(-c4ccncc4)s3)c3ccccc3NC2C=C1 (centres unmarked) is 5% ^b

What the record says about COC1=CC2C(=Nc3nnc(-c4ccc(Cl)cc4)s3)c3ccccc3NC2C=C1 (centres unmarked) : MOR (mortality rate) is 65% ^c

Form: compound = COc1ccc2nc3ccccc3c(NC(=S)NNC(=O)c3ccccc3)c2c1 ; MOR (mortality rate) = 40% ^a
